molecular target: Coleoptera luciferase (Photinus pyralis); construct: purchased Toyo Ink Manufacturing Co., Ltd. PGL100; experiment: luciferin/luciferase luminescent reaction with an added sulfur reagent, measured on a luminometer; assay type: biochemical; conditions: final concentration 0.33 mM; initial 200 seconds; 100 ng/mL luciferase
Sequence (P08659 whole entry): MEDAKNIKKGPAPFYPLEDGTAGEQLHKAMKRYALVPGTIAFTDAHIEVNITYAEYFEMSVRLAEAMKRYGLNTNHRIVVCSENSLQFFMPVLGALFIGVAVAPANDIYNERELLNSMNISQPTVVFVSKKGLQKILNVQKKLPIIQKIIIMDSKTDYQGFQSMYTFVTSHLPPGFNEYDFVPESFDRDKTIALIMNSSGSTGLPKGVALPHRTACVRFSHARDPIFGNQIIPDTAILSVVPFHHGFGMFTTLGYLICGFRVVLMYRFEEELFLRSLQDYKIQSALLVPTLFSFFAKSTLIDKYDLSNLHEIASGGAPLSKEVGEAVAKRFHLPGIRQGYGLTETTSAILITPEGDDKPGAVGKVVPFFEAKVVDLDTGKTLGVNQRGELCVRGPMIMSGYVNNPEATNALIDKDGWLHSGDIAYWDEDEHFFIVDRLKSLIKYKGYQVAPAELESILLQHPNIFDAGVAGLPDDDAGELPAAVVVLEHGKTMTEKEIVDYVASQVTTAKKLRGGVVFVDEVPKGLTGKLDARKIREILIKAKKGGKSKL
OBSERVED_PROPERTY: max RLU (maximum quantity of light emitted)

Sample answers from the record:
{"columns": ["COMPOUND", "REPORTED_MEASUREMENT"],
 "data": [
  ["Sc1nc2ccccc2s1", "3,267,710 RLU/sec"],
  ["CCN(CC)C(=S)[S-].[Na+] [Sodium diethyldithiocarbamate, sodium diethyldithiocarbamate]", "3,267,710 RLU/sec"],
  ["CCOC(=S)[S-].[K+] [Potassium xanthogenate, potassium xanthogenate]", "3,232,620 RLU/sec"]
]}

Attention now shifts to the item below.
[Q] Item O[C@H](CS)[C@H](O)CS (racemic) [DTT, dithiothreitol, reference compound] has what recorded max RLU (maximum quantity of light emitted)?
[A] 3,359,620 RLU/sec
